Source: ChEMBL document CHEMBL2406953

# System: Raji
# PROTOCOL DESCRIPTION: Cytotoxicity against human Raji cells after 48 hrs by MTS assay
# Type: functional, cell-based
PROPERTY NAME: IC50 (µM)
Give just the numeric value; µM need not be written.

Task: Report IC50, nothing else, for this molecule: C=C(C)[C@H]1Cc2c(ccc3c2O[C@@H]2COc4cc(OC)c(OC)cc4[C@@H]2C3=O)O1
Result: 4.2

More entries:
Task: Report IC50, nothing else, for this molecule: C=C(C)[C@H]1Cc2c(ccc3c2O[C@@H]2COc4cc(OC)c(OC)cc4[C@]2(O)C3=O)O1
Result: 5.6

====

# PROTOCOL DESCRIPTION: Cytotoxicity against mouse Hepa-1c1c7 cells
# Format: functional, cell-based
pIC50: −log10 of the molar value.
Threshold check on pIC50: at or above 5 gives criterion met, strictly below gives criterion not met.

Look over these answered cases.
Task: Quick check: does COc1ccc2c(c1C1=COC(C)(C)C1=O)O[C@H](c1ccccc1)CC2=O [(2S)-2,3-DIHYDROTEPHROGLABRIN] have pIC50 greater than or equal to 5?
Result: criterion not met

Task: Quick check: does COc1cc2c(c(O)c1C(=O)/C=C/c1ccccc1)[C@H]1[C@@H](O2)OC(C)(C)[C@@H]1OC(C)=O have pIC50 greater than or equal to 5?
Result: criterion not met

Task: Quick check: does COc1ccc2c(c1/C=C/C(C)(C)OC)O[C@H](c1ccccc1)CC2=O have pIC50 greater than or equal to 5?
Result: criterion not met

Task: Quick check: does C=C(C)[C@H]1Cc2c(ccc3c2O[C@@H]2COc4cc(OC)c(OC)cc4[C@]2(O)C3=O)O1 have pIC50 greater than or equal to 5?
Result: criterion met

Task: Quick check: does CC1(C)O[C@@H]2Oc3ccc(C(=O)/C=C/c4ccccc4)c(O)c3[C@@H]2[C@H]1O [(+)-TEPHROSONE] have pIC50 greater than or equal to 5?
Result: criterion not met

Task: Quick check: does COc1cc2c(c3c1C(=O)C[C@@H](c1ccccc1)O3)[C@H]1[C@@H](O2)OC(C)(C)[C@@H]1OC(C)=O (stereo in doubt; 2) have pIC50 greater than or equal to 5?
Result: criterion not met

More entries:
Task: Quick check: does C=C(C)[C@H]1Cc2c(ccc3c2O[C@@H]2COc4cc(OC)c(OC)cc4[C@@H]2C3=O)O1 have pIC50 greater than or equal to 5?
Result: criterion met

Task: Quick check: does COc1ccc2c(c1/C=C/C(C)(C)O)O[C@H](c1ccccc1)CC2=O have pIC50 greater than or equal to 5?
Result: criterion not met
